Molecular target: T1, human CTGF protein (R&D, Cat No. 9190-CC) (human, UniProt P29279 27-349)
T1 construct: Bought protein; also called CTGF recombinant protein; CTGF (R&D)
T1 sequence: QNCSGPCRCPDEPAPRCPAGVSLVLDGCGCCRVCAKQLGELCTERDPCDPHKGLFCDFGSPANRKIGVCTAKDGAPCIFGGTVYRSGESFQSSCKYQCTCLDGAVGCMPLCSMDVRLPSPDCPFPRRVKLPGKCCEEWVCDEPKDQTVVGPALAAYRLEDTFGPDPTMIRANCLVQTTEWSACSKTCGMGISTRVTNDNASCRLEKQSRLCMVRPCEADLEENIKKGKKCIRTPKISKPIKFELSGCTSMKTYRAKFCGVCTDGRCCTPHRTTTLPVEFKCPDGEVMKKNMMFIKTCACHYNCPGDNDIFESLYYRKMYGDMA
Experiment: ELISA, plate coated with CTGF (R&D 9190-CC)
Method: The binding activity of anti-human CTGF antibody to human CTGF protein was tested by ELISA assay and Biacore. A 96-well microtiter plate was directly coated with the CTGF recombinant protein. The signal strength upon the addition of the antibody was used to determine the binding activity of the antibody to CTGF. The specific experimental procedures were as follows: […]
Recorded EC50 values for a group of binders are listed next.
Answer with the number, then the unit.

IN: Name the reported EC50 value associated with the binder Hu164-87wl (antibody, human IgG1, lambda, V domains shown) VH: EVQLQESGPGLVKPSQTLSLTCTVSGFSISTFGVHWIRQHPGKGLEWLGVIWRRGGTDYNAAFMSRLTISKDTSKNQVSFKLSSVTAADTAVYYCARDGGFDYWGQGTTVTVSS VL: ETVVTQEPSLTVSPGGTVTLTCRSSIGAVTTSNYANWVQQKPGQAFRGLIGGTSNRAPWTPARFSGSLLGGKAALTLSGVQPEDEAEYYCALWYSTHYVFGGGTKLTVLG
OUT: 0.055 nM

IN: Can you check Hu164-77wl (antibody, human IgG1, lambda, V domains shown) VH: EVQLQESGPGLVKPSQTLSLTCTVSGFSISTFGVHWIRQHPGKGLEWIGVIWRRGGTDYNAAFMSRVTISKDTSKNQVSLKLSSVTAADTAVYYCARDGGFDYWGQGTTVTVSS VL: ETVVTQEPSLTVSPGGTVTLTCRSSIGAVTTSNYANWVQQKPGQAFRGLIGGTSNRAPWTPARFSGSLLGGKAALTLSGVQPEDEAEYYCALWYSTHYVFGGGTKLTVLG next?
OUT: 0.055 nM

IN: Can you check Hu147-24wk (antibody, human IgG1, kappa, V domains shown) VH: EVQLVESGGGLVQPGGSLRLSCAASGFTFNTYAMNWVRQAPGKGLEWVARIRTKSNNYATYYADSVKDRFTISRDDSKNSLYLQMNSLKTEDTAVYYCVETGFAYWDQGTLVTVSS VL: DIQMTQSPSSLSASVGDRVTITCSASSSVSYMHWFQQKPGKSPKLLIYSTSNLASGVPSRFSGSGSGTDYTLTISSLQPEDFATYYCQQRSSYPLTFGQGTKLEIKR next?
OUT: 0.048 nM

IN: Can you check Hu147-12wk (antibody, human IgG1, kappa, V domains shown) VH: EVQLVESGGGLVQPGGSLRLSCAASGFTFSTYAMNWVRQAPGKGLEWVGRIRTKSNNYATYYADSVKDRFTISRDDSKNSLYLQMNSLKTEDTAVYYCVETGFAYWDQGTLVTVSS VL: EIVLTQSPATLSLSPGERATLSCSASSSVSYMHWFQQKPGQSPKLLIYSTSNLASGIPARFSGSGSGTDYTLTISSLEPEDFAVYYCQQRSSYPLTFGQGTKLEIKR next?
OUT: 0.046 nM

From here, focus on the item given below.
IN: Name the reported EC50 value associated with the binder Hu147-32wk (antibody, human IgG1, kappa, V domains shown) VH: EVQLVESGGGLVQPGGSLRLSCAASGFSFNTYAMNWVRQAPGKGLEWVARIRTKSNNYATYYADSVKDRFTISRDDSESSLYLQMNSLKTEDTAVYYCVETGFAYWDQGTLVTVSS VL: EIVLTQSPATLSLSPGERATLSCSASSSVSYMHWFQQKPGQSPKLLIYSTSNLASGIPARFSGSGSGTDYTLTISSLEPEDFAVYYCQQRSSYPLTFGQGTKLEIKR
OUT: 0.063 nM
